All values here come from patent US20260337177A1.

- System: TEADs
- Protocol: TEAD-specific 8×GTIIC-luciferase reporter assay
- Type: cell-based
- Test settings: 10 μM; 8×GTIIC-luciferase; read-out: Luciferase reporter assay inhibitory rate
Reported property: inhibition at 10 µM
Write your answer as a measured quantity: the number, then the unit.

Ask: Give inhibition at 10 µM; test system TEADs; compound `N#C/C(=C\c1c[nH]c2cc(Cl)c(OCc3ccc4ccccc4c3)cc12)C(N)=O`
Reply: 47.3%

###

- System: Huh7 cells
- Protocol: Huh7 cell proliferation assay (CCK8)
- Type: cell-based, human
- Test settings: Homo sapiens, Huh-7, 72 h; 3 days; CCK8; mean ± SD of three independent experiments; read-out: Cell proliferation assay IC50, Huh7
- Experimental: CCK8 assay kit was used to determine antiproliferative activity of synthesized compounds against Huh7 cell line. First, Huh7 cells were seeded into 96-well plates at a density of 3000 cells/well and incubated overnight. Cells were then co-incubated with compounds at 8 concentrations for 72 h. Then, the cell proliferation was determined by the CCK8 kit according to the standard protocol. Experiments were performed in triplicate.
Form field: pIC50 (one value per entry).
Note on units: pIC50 is unitless, being -log10 of a concentration expressed in mol/L.

Compound	Endpoint result
C=C(CN(C)C)C(=O)NCc1c[nH]c2cc(Cl)c(OCc3ccccc3)cc12 [Compound 25]	5.70

Ask: Please give measured pIC50 of the following entry: COc1cc2[nH]cc(C(=O)CCl)c2cc1OCc1ccc2ccccc2c1 [Compound 5]
Reply: 5.62

Ask: Please give measured pIC50 of the following entry: COc1cc2[nH]cc(C(=O)CCl)c2cc1OCc1ccccc1 [Compound 4]
Reply: 5.42

Ask: Please give measured pIC50 of the following entry: N#C/C(=C\c1c[nH]c2cc(Cl)c(OCc3ccc4ccccc4c3)cc12)C(N)=O [Compound 17]
Reply: 5.39
